All figures here come from patent US20070270429A1.

target: human CCR5 (Homo sapiens, UniProt P51681); construct: expressed in transfected cells; assay: Migration test of human CCR5 expression cell (hCCR5-Ba/F3 cell); format: cell-based; conditions: RANTES 3 nM in lower chamber, hCCR5-Ba/F3 cells, 3 hours; read-out: IC50 (nM), migration inhibition, chemokine RANTES
Sequence (P51681 whole entry): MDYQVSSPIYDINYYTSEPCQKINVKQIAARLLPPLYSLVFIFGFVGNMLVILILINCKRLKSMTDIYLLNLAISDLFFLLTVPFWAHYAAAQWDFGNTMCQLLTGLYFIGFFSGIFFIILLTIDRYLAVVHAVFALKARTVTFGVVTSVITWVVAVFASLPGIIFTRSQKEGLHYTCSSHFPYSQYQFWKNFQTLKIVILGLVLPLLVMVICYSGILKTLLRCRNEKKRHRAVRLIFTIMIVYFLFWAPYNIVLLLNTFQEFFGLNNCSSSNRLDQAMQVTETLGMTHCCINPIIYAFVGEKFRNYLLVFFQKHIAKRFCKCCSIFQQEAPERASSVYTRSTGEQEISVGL
Listed next: entries and their corresponding IC50.

molecule	IC50 (nM)
CCCCN1C(=O)[C@@H]([C@H](O)C2CCCCC2)NC(=O)C12CCN(Cc1ccc(Oc3ccc(C(=O)O)cc3OCC)cc1)CC2.Cl [Compound (c), hydrochloride]	22.5
CCCCN1C(=O)[C@@H]([C@H](O)C2CCCCC2)NC(=O)C12CCN(Cc1ccc(Cc3ccc(C(=O)O)cc3OC)cc1)CC2	12.4

---

target: human CCR5 (Homo sapiens, UniProt P51681); construct: expressed in transfected cells; assay: Migration test of human CCR5 expression cell (hCCR5-Ba/F3 cell); type: cell-based; conditions: MIP-1β 3 nM in lower chamber, hCCR5-Ba/F3 cells, 3 hours; read-out: IC50 (nM), migration inhibition, chemokine MIP-1β

compound	IC50, nM
CCCCN1C(=O)[C@@H]([C@H](O)C2CCCCC2)NC(=O)C12CCN(Cc1ccc(Cc3ccc(C(=O)O)cc3OC)cc1)CC2 [Compound (b)]	11.1
CCCCN1C(=O)[C@@H]([C@H](O)C2CCCCC2)NC(=O)C12CCN(Cc1ccc(Oc3ccc(C(=O)O)cc3OCC)cc1)CC2.Cl [Compound (c), hydrochloride]	18.4
